study_target: thioredoxin reductase (TrxR) (Escherichia coli, UniProt P0A9P4)
Sequence (P0A9P4 2-321): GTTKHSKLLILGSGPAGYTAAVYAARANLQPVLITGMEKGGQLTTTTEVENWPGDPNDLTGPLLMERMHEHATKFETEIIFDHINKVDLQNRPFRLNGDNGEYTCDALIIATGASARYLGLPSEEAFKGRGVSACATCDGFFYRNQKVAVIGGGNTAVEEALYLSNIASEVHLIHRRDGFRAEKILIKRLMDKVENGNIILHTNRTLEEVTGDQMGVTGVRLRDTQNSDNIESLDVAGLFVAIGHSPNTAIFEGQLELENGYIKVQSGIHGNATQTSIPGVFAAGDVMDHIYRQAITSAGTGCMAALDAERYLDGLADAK
assay_name: DTNB reduction kinetic assay with Trx and NADPH in lysates of treated E. coli DSM […] cells
pIC50: −log10 of the molar value.
measurement_name: pIC50

Would you please look over these solved cases?
[[record]]
compound = "CC(C)n1[c]([Ag-][I])[n+](Cc2ccccn2)c2ccccc21 [1-I]"
assay_value = "~5.22"

[[record]]
compound = "COCCn1[c]([Ag-][I])[n+](Cc2ccccn2)c2ccccc21 [2-I]"
assay_value = "~5.22"


[ask] Quick one: give measured pIC50 for CC(C)n1[c]([Ag-][Cl])[n+](Cc2ccccn2)c2ccccc21 [1-Cl]
[reply] ~4.96

[ask] Tell me measured pIC50 for COCCn1[c]([Ag-][Cl])[n+](Cc2ccccn2)c2ccccc21 [2-Cl] please.
[reply] ~4.96
